# EC50 per record follows
Tested on: MCF-7 breast carcinoma
measurement-notes: Cytotoxicity assay (monolayer), MCF-7;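 also: cells treated 72 h with 6-8 compound doses versus DMSO vehicle controls, EC50 fitted by 4-parameter dose-response curves, averaged across all tests and lots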
Format: cell-based
run-parameters: MCF7, ML (monolayer); read-out: MCF7 (EC50 Ave) ML
Primed or numbered codes have the meaning given here. * marks the point of attachment. 10Ca‑PXL = paclitaxel conjugated at C10 via a carbamate; 3Am‑VBL = vinblastine (VBL) conjugate; ALK(6) = not defined here; MAL(9) = not defined here; 3′Alk = not defined here; PEG(11) = PEG(11) linker; PEG(29) = PEG(29) linker; 10Es = not defined here; 3Am = not defined here; Cbz = O=C(OCc1ccccc1)*; PEG(13) = PEG13 linker; Piv = CC(C)(C)C(=O)*; VBL = vinblastine; PXL = paclitaxel

INSERT INTO measurements (substance, system_name, meas_value) VALUES
  ('H-YIYGSFK-3′Alk-MAL(9)-DOX (H-YIYGSFK-{3′Alk-MAL(9)-DOX}; reading uncertain)', 'MCF-7 breast carcinoma', '> 100 nM'),
  ('CBz-RPRTSSF-PEG(29)-3Am-VBL (N-CBz; PEG(29) linker; vinblastine conjugate)', 'MCF-7 breast carcinoma', '> 100 nM'),
  ('H-GIYWHHY-PEG(29)-3Am-VBL (H-GIYWHHY-{PEG(29)-3Am-VBL}; reading uncertain)', 'MCF-7 breast carcinoma', '> 100 nM'),
  ('Pv-RLVAYEGYV-PEG(11)-3Am-VBL (Piv-RLVAYEGYV-{PEG(11)-3Am‑VBL})', 'MCF-7 breast carcinoma', '> 100 nM'),
  ('Ac-YIYGSFS-PEG(11)-3Am-VBL (N-acetyl; PEG(11) linker; vinblastine conjugate)', 'MCF-7 breast carcinoma', '> 100 nM'),
  ('BOC-GIYWHHY-PEG(11)-3Am-VBL (N-BOC; PEG(11) linker; vinblastine conjugate)', 'MCF-7 breast carcinoma', '> 100 nM'),
  ('Ac-YIYGSFK-PEG(13)-10Ca-PXL (N-acetyl; PEG(13) linker; paclitaxel conjugate)', 'MCF-7 breast carcinoma', '> 100 nM'),
  ('Ac-YIYGSFK-3′Alk-MAL(9)-DOX (Ac-YIYGSFK-{3′Alk-MAL(9)-DOX}; reading uncertain; also: printed as Ac-YIYGSFK-3′Alk-MAL(9)-DOX)', 'MCF-7 breast carcinoma', '> 100 nM'),
  ('BOC-YIYGSFS-PEG(11)-3Am-VBL (N-BOC; PEG(11) linker; vinblastine conjugate)', 'MCF-7 breast carcinoma', '> 100 nM'),
  ('CBz-YIYGSFK-3′Alk-MAL(9)-DOX (Cbz-YIYGSFK-{3′Alk-MAL(9)-DOX}; reading uncertain; also: printed as CBz-YIYGSFK-3′Alk-MAL(9)-DOX)', 'MCF-7 breast carcinoma', '> 100 nM');

Request: Name the reported EC50 value associated with the substance Pv-RSRTSSF-PEG(11)-3Am-VBL (Piv-RSRTSSF-{PEG(11)-3Am‑VBL}; also: 2 TFA salt)
Response: > 100 nM

Request: So what does the record say about EC50 for H-YIYGSFK-PEG(11)-3Am-VBL (H-YIYGSFK-{PEG(11)-3Am-VBL}; reading uncertain) ?
Response: > 100 nM

Request: Fill in the blank: the reported EC50 of Pv-GRPRTSSFAEG-PEG(13)-10Ca-PXL (Piv-GRPRTSSFAEG-{PEG(13)-10Ca‑PXL}; also: TFA salt) is ____.
Response: > 100 nM

Request: What value of measured EC50 is listed for Pv-GRPRTSSFAEG-3Am-VBL (Piv-GRPRTSSFAEG-{3Am‑VBL}; also: 2 TFA salt) ?
Response: > 100 nM

Request: What value of EC50 has been reported for the following substance? CBz-YIYGSFK(CBz)-ALK(6)-10Es-PXL (Cbz-YIYGSFK(Cbz)-{ALK(6)-10Es-PXL}; reading uncertain; also: printed as CBz-YIYGSFK(CBz)-ALK(6)-10Es-PXL)
Response: 20 to 100 nM

Request: For CBz-YIYGSFK(CBz)-PEG(11)-3Am-VBL (Cbz-YIYGSFK(Cbz)-{PEG(11)-3Am-VBL}; reading uncertain; also: printed as CBz-YIYGSFK(CBz)-PEG(11)-3Am-VBL) , what is its reported EC50?
Response: 20 to 100 nM

Request: Endpoint output: EC50 of Pv-E(DMAB)YIYGSFR-PEG(11)-3Am-VBL (EYIYGSFR) . Value?
Response: 20 to 100 nM

Request: Field request: EC50 | item: Ph(C═O)-RPRTSSF-PEG(11)-3Am-VBL (N-benzoyl; PEG(11) linker; vinblastine conjugate)
Response: 20 to 100 nM

Request: # EC50 lookup, item BOC-EYIYGSFK(BOC)-PEG(11)-3Am-VBL (N-BOC; BOC side chain; PEG(11); vinblastine conjugate)
Response: > 100 nM

Request: # lookup: EC50 of CBz-GIYWHHY-PEG(11)-3Am-VBL (N-CBz; PEG(11) linker; vinblastine conjugate)
Response: > 100 nM

Request: Look up EC50 for this substance: Ac-YIYGSFR-PEG(11)-3Am-VBL (N-acetyl; PEG(11) linker; vinblastine conjugate)
Response: 20 to 100 nM

Request: Given the substance Pv-RLVAYEGYV-PEG(13)-10Ca-PXL (Piv-RLVAYEGYV-{PEG(13)-10Ca‑PXL}) , what is its reported EC50?
Response: > 100 nM

Request: Look at this substance and give its reported EC50. CBz-RPRTSSF-PEG(13)-10Ca-PXL (N-CBz; PEG(13) linker; paclitaxel conjugate)
Response: > 100 nM

Request: # EC50 lookup, item BOC-YIYGSFR-PEG(11)-3Am-VBL (N-BOC; PEG(11) linker; vinblastine conjugate)
Response: > 100 nM
